species on record: Rattus norvegicus; assay: Open TG-GATES - Regimen: Single; assay type: toxicity, organism-based, Sprague-Dawley; set-up: regimen Single, gender Male, age 6 weeks; settings: in vivo, po, 0 mg/kg, 3 h, tissue Plasma, route gavage, dose level Control

compound	BUN / mg/dL
OCCN1CCN(CCCN2c3ccccc3Sc3ccc(C(F)(F)F)cc32)CC1	13
C[C@H]1C(=O)O[C@@H]2CCN3CC=C(COC(=O)[C@](C)(O)[C@]1(C)O)[C@H]23	13.4
C[C@H]1O[C@H](O[C@H]2[C@H](O)[C@@H](O)[C@@H](O[C@H]3[C@H](O)[C@@H](O)C(O)O[C@@H]3CO)O[C@@H]2CO)[C@H](O)[C@@H](O)[C@@H]1N[C@H]1C=C(CO)[C@@H](O)[C@H](O)[C@H]1O (some centres undefined)	10.4
O=[N+]([O-])c1ccc(O)c([N+](=O)[O-])c1	11

* * *

Catalogue of compounds with associated Ca
species: Rattus norvegicus; assay: Open TG-GATES - Regimen: Single; type: toxicity, organism-based, Sprague-Dawley; set-up: regimen Single, gender Male, age 6 weeks; details: in vivo, po, 0 mg/kg, 6 h, tissue Plasma, route gavage, dose level Control

compound	Ca
OCCN1CCN(CCCN2c3ccccc3Sc3ccc(C(F)(F)F)cc32)CC1	10.2 mg/dL
C[C@H]1C(=O)O[C@@H]2CCN3CC=C(COC(=O)[C@](C)(O)[C@]1(C)O)[C@H]23	10.6 mg/dL
O=[N+]([O-])c1ccc(O)c([N+](=O)[O-])c1	10.8 mg/dL
C=C(C)[C@H]1Cc2c(ccc3c2O[C@@H]2COc4cc(OC)c(OC)cc4[C@@H]2C3=O)O1	10.9 mg/dL
Cc1ccc2cc3c(ccc4ccccc43)c3c2c1CC3	10.4 mg/dL
CCOC(=O)C(C)(C)Oc1ccc(Cl)cc1 [CLOFIBRATE]	10.7 mg/dL
Cn1cc[nH]c1=S	10.6 mg/dL
C[C@H]1O[C@H](O[C@H]2[C@H](O)[C@@H](O)[C@@H](O[C@H]3[C@H](O)[C@@H](O)C(O)O[C@@H]3CO)O[C@@H]2CO)[C@H](O)[C@@H](O)[C@@H]1N[C@H]1C=C(CO)[C@@H](O)[C@H](O)[C@H]1O (some centres undefined)	10.5 mg/dL
Cc1cccc(C)c1OCC(C)N (centres undefined)	10.5 mg/dL

* * *

Catalogue of compounds with associated TP
species: Rattus norvegicus; test: Open TG-GATES - Regimen: Single; assay type: toxicity, organism-based, Sprague-Dawley; parameters: regimen Single, gender Male, age 6 weeks; settings: in vivo, po, 0 mg/kg, 6 h, tissue Plasma, route gavage, dose level Control

compound	TP [g/dL]
Cn1cc[nH]c1=S	5.4
C[C@H]1C(=O)O[C@@H]2CCN3CC=C(COC(=O)[C@](C)(O)[C@]1(C)O)[C@H]23	5.5
C=C(C)[C@H]1Cc2c(ccc3c2O[C@@H]2COc4cc(OC)c(OC)cc4[C@@H]2C3=O)O1	5.4
O=[N+]([O-])c1ccc(O)c([N+](=O)[O-])c1	5.5
CCOC(=O)C(C)(C)Oc1ccc(Cl)cc1 [CLOFIBRATE]	5.7
O=C1CN(/N=C/c2ccc([N+](=O)[O-])o2)C(=O)N1	5.4
Cc1cccc(C)c1OCC(C)N (stereo not given)	5.4
Cc1ccc2cc3c(ccc4ccccc43)c3c2c1CC3	5.5
OCCN1CCN(CCCN2c3ccccc3Sc3ccc(C(F)(F)F)cc32)CC1	5.3
C[C@H]1O[C@H](O[C@H]2[C@H](O)[C@@H](O)[C@@H](O[C@H]3[C@H](O)[C@@H](O)C(O)O[C@@H]3CO)O[C@@H]2CO)[C@H](O)[C@@H](O)[C@@H]1N[C@H]1C=C(CO)[C@@H](O)[C@H](O)[C@H]1O (stereo not given in full)	5.2
